TARGET_ENTITY: NRP1-PlexinA1 interaction (Mus musculus, UniProt P70206)
Construct: endogenous in cells; host or cells: Oli-neu cells
TEST_METHOD_NOTES: Proximity ligation assay of Neuropilin-1/Plexin-A1 receptor dimers in Oli-neu cells
Type: cell-based
CONDITION_CONTEXT: Oli-neu cells, dose response; read-out: IC50, number of NRP1/PlexinA1 interactions
Protocol: After fixation with 1% PFA for 10 min, slices were permeabilized with PBS/0.1% Triton X-100. Primary antibodies (NRP1 from Evitria, 1:500; and Plexin-A1 from Abcam, ab23391, 1:200) were incubated overnight at 4° C. in PBS. […] Quantification of the interactions (fluorescent dots at the cell surface) was performed using ImageJ software.
Ends that are not written are not given here.
QUANTITY_KIND: IC50 (nM)
Answers are plain numbers, in nM.

(Q) Item TLPAIVSIGGGVVLLLEVIVEVAYEEEEE [MIMMING] has what recorded IC50?
(A) 17

Value source: patent US20250320253A1
